- study.system: human TLR9 (Homo sapiens, UniProt Q9NR96)
- Sequence (Q9NR96 26-1032): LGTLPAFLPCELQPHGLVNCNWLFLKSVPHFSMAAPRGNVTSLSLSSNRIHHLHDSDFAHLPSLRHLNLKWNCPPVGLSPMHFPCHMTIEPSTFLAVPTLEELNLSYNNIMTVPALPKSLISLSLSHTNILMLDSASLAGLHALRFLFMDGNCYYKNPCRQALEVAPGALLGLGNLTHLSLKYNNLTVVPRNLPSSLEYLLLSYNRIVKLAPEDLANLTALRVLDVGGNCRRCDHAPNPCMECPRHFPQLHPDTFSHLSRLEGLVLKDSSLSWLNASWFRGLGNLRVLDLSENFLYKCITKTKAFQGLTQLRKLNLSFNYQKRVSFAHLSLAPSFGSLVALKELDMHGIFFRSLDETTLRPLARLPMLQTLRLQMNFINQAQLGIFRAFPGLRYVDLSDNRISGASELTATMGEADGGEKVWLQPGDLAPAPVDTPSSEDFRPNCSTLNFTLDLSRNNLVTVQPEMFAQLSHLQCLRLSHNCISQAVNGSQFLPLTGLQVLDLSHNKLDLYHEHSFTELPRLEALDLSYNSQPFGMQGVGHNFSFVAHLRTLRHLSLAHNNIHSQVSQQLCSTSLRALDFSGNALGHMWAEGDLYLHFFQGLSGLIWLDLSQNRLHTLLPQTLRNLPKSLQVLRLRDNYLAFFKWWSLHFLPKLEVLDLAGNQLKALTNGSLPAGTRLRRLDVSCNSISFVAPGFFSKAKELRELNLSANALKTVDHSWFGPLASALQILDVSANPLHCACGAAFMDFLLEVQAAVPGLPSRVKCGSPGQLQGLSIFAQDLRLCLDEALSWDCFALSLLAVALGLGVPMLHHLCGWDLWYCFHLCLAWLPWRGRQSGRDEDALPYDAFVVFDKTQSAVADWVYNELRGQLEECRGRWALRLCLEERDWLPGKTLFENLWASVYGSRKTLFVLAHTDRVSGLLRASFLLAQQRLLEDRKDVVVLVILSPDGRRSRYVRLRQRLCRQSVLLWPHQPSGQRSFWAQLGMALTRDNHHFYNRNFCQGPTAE
- experiment.notes: TLR9 inhibition reporter assay (HEK-Blue cells, SEAP reporter, ODN2006 stimulation)
- experimental.conditions: HEK-Blue cells overexpressing human TLR9, SEAP reporter, ODN2006 5 nM
parameter.measured: IC50

A selection of reference data follows.
CCc1c(-c2ccnc3[nH]ccc23)[nH]c2ccc(C3CCN(C4CCN(CC)CC4)CC3)cc12 | 100 to 1000 nM
Cc1cc(-c2[nH]c3ccc(C4CCN(C(=O)CN(C)C)CC4)cc3c2C(C)C)cc2[nH]c(=O)oc12 | 1000 to 50000 nM
Cc1cc(-c2[nH]c3ccc(C4CCN(Cc5ccn(C)n5)CC4)cc3c2C(C)C)cc2cnnn12 | 100 to 1000 nM
CNC(=O)CN1CCC(c2ccc3[nH]c(-c4cc(F)c5nccn5c4)c(CC(F)F)c3c2)CC1 | 1000 to 50000 nM

Request body: readout IC50, system human TLR9 (Homo sapiens, UniProt Q9NR96), query `CC(C)c1c(-c2ccc3ncsc3c2)[nH]c2ccc(C3CCNCC3)cc12` . Return the value. 1000 to 50000 nM

* * *

- study.system: human TLR7 (Homo sapiens)
- Sequence (Q9NYK1 27-1049): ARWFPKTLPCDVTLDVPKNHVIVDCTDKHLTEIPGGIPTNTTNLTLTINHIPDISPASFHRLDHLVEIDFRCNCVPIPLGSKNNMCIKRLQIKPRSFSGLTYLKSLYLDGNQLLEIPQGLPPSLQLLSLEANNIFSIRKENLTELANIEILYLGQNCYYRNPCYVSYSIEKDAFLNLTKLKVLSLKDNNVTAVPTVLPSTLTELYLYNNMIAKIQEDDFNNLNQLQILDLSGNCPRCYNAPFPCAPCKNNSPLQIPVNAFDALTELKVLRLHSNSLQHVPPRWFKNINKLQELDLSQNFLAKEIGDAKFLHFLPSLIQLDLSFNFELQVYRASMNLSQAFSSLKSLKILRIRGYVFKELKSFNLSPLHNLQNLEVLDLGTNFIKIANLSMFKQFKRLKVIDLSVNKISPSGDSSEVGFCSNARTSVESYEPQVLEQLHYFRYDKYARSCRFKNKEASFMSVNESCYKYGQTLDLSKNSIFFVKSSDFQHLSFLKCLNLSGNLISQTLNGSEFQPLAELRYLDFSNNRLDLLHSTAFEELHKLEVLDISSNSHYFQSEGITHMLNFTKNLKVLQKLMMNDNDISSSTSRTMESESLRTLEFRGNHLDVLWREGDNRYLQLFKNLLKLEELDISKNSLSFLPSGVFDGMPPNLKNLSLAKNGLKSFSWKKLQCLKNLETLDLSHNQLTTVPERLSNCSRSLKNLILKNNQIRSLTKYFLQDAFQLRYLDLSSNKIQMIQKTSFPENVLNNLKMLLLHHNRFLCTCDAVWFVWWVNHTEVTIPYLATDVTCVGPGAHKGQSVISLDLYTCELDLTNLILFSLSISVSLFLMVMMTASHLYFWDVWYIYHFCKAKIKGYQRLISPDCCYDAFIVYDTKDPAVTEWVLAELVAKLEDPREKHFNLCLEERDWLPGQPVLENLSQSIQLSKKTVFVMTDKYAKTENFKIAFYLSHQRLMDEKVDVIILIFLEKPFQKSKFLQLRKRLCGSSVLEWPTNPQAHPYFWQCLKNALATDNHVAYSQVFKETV
- experiment.notes: TLR7 inhibition reporter assay (HEK-Blue cells, SEAP reporter, gardiquimod stimulation)
- experimental.conditions: HEK-Blue cells overexpressing human TLR7, SEAP reporter, gardiquimod 7.5 μM
pIC50: −log10 of the molar value.
pIC50 values by entry

CC(C)c1c(-c2ccc3ncnn3n2)[nH]c2ccc(C3CCN(CC(C)(C)O)CC3)cc12 | > 7.00
COc1cc(-c2[nH]c3ccc(C4CCN(CC(=O)N(C)C)CC4)cc3c2C(C)C)cn2cc(C(=O)N(C)C)nc12 | > 7.00
Cc1cn2cc(-c3[nH]c4ccc(C5CCN(C(=O)CC(C)(C)O)CC5)cc4c3CC(F)F)ccc2n1 | 6.00 to 7.00
CC(C)c1c(-c2ccn3nccc3n2)[nH]c2ccc(C3CCNCC3)cc12 | 6.00 to 7.00
CCOc1cc(-c2[nH]c3ccc(C4CCN(C(=O)CN(C)C)CC4)cc3c2C(C)C)cc2ncnn12 | > 7.00
CCc1c(-c2cnc3cn[nH]c3c2)[nH]c2ccc(C3CCNCC3)cc12 | 6.00 to 7.00

Moving on to the next compound.
May I ask what pIC50 has been recorded for `CCc1c(-c2ccnc3[nH]ncc23)[nH]c2ccc(C3CCN(Cc4cncn4C)CC3)cc12` ? 6.00 to 7.00

* * *

- study.system: human TLR8 (Homo sapiens)
- Sequence (Q9NR97 27-1041): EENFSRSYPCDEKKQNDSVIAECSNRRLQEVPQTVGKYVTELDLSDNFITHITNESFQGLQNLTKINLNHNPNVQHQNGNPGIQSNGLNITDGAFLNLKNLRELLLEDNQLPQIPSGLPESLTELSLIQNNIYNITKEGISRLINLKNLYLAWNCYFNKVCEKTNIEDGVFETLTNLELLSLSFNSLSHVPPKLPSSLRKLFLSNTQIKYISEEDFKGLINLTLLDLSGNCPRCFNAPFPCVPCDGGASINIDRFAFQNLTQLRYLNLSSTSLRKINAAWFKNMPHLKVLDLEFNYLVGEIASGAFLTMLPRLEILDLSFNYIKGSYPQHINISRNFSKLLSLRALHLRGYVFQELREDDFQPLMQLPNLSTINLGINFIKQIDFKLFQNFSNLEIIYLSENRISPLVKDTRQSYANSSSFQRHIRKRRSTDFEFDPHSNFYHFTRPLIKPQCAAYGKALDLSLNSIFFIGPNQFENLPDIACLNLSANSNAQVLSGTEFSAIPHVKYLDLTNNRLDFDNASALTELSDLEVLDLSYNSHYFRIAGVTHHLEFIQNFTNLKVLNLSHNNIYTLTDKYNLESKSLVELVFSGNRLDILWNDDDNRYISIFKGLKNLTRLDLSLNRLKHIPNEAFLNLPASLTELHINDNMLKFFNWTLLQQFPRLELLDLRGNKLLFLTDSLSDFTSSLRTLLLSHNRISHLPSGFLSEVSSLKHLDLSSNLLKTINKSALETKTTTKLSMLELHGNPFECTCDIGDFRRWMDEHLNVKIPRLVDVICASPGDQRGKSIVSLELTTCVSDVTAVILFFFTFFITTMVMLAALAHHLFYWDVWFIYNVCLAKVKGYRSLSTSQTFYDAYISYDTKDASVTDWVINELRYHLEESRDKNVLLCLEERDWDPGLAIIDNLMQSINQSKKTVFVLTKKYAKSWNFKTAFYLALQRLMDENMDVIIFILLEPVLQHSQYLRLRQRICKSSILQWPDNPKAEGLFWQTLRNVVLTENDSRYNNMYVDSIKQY
- experiment.notes: TLR8 inhibition reporter assay (HEK-Blue cells, SEAP reporter, R848 stimulation)
- experimental.conditions: HEK-Blue cells overexpressing human TLR8, SEAP reporter, R848 15.9 μM
pIC50: −log10 of the molar value.
pIC50 values by entry

May I ask what pIC50 has been recorded for `CC(=O)N1CCC(N2CCC(c3ccc4[nH]c(-c5ccnc6[nH]ncc56)c(C(C)C)c4c3)CC2)CC1` ? > 7.00

May I ask what pIC50 has been recorded for `CC(C)c1c(-c2ccnc3[nH]ccc23)[nH]c2ccc(C3CCNCC3)cc12` ? > 7.00

May I ask what pIC50 has been recorded for `Cc1cc(-c2[nH]c3ccc(C4CCN(C(=O)CN5[C@@H]6CC[C@H]5COC6)CC4)cc3c2C(C)C)cn2nnnc12` ? > 7.00
